The origin of these recorded values is ChEMBL document CHEMBL1201862.

GI50 values by entry
System: CCRF-CEM
Experiment: NCI tumour cell line growth inhibition, 48 h
Activity calls are given as the source filed them. Rule as the data show it: active = GI50 up to about 1.1 µM and inactive = higher.
assay-metric: GI50

structure_smiles_string=CCc1nc(N)c2nc(-c3cccs3)oc2n1 assay_metric=GI50 observed_measurement="77.1 µM (inactive)"
structure_smiles_string=C=C=C(C)[Si](C)(C)C assay_metric=GI50 observed_measurement="> 100 µM (inactive)"
structure_smiles_string=O=[N+]([O-])c1ccc2occ3c2c1CCC3 assay_metric=GI50 observed_measurement="> 100 µM (inactive)"
structure_smiles_string=Cc1ccc([N+](=O)[O-])cc1NC1=NCCO1 assay_metric=GI50 observed_measurement="> 100 µM (inactive)"
structure_smiles_string=CCOc1ccc(Nc2nc3c(s2)C(=O)c2ccccc2C3=O)cc1 assay_metric=GI50 observed_measurement="7.82 µM (inactive)"
structure_smiles_string=CC(=O)N1CC(=O)N2C(=O)/C(=C/c3ccc(Cl)cc3)N=C12 assay_metric=GI50 observed_measurement="45 µM (inactive)"
structure_smiles_string=Cc1ccc(-c2cc(-c3ccccc3)c(C#N)c(=O)[nH]2)cc1 assay_metric=GI50 observed_measurement="> 100 µM (inactive)"
structure_smiles_string=CN(/N=C/c1cccs1)c1ccc([N+](=O)[O-])cc1[N+](=O)[O-] assay_metric=GI50 observed_measurement="> 100 µM (inactive)"
structure_smiles_string=CCOC(=O)c1nc2ccc(C(F)(F)F)cc2nc1Nc1ccc(OC)c(OC)c1 assay_metric=GI50 observed_measurement="> 100 µM (inactive)"
structure_smiles_string=COC(=O)NN1C(=O)C(=P(c2ccccc2)(c2ccccc2)c2ccccc2)C(C(=O)OC)=C1C assay_metric=GI50 observed_measurement="> 100 µM (inactive)"
structure_smiles_string=CC/C(Cl)=N\OC(=O)Nc1ccc(OC)cc1 assay_metric=GI50 observed_measurement="1.75 µM (inactive)"

* * *

Test system: U-251
Experiment: NCI tumour cell line growth inhibition, 48 h
Activity calls are given as the source filed them. No stated cut-off is given here; in the data, active = GI50 up to about 1.1 µM and inactive = higher.
Labels: yes (active), no (inactive)

compound=CCn1c(=O)c2c3ccc(OC)cc3[nH]c2c2ccc(OC)cc21 assigned_label=no
compound=O=C1CCCC2=C1CC1=C(CCCC1=O)N2c1ccc([N+](=O)[O-])cc1 assigned_label=no
compound=CC(=O)O[C@H]1C#C/C=C\C#CC[C@@H]2C(=O)N(C(=O)OC(C)(C)C)[C@@H]12 assigned_label=no
compound="COC1OC(CBr)C(OC(=O)c2ccccc2)C(OS(=O)(=O)c2ccc(C)cc2)C1Br (stereo unspecified)" assigned_label=no
compound=Fc1cc(C2=Nn3c(COc4ccccc4Cl)nnc3S/C2=C\c2ccc(Cl)cc2)c(Cl)cc1Cl assigned_label=no
compound="C=CCC1=CC2(OC)C(=O)C(OC)(OC)C1C1C(OC)(OC)C(=O)C(OC)=CC12CC=C (stereo unspecified)" assigned_label=no
compound=CCCCOc1ccc2c(c1)CC[C@@H]1[C@@H]2CC[C@]2(C)C(=O)N(CCCC)C(=O)C[C@@H]12 assigned_label=no
compound=NS(=O)(=O)c1nnc(NC(=O)/C=C/C(=O)O)s1 assigned_label=no
compound=Oc1cc(-c2ccccc2Cl)nc2cc3c(cc12)OCO3 assigned_label=yes
compound=CCC1(CC)C(=O)NN(C(=O)c2ccc(Cl)cc2)C1=O assigned_label=no
compound="NC(=S)NNCC(=O)CC(O)(C(F)(F)F)C(F)(F)Cl (stereo unspecified)" assigned_label=no
compound="N=C(N)NCCCC(NC(=O)c1c2ccccc2nc2ccccc12)C(=O)O (stereo unspecified)" assigned_label=no
compound="CCOC(=O)C1=C(C)N2CCOC2(C)C(C(=O)OC)C1c1cccc(Cl)c1 (stereo unspecified)" assigned_label=no
compound=Cc1cc2c3c(c1)CCCN3CCC2 assigned_label=no
compound="O=C(O)C1=C(O)C(C(=O)O)C23CCCCCCCCCCC12C(C(=O)O)C(O)=C3C(=O)O (stereo unspecified)" assigned_label=no
compound="CCOP(=O)(OCC)C(C)(CC)NC (stereo unspecified)" assigned_label=no
compound="CCCCCc1cc2cc3c(c(O)c2c(=O)[nH]1)C1(CCC3)C(=O)c2c(O)c3c(c(O)c2C1=O)C(=O)C(OC)=CC3=O (stereo unspecified)" assigned_label=yes
compound=COC(=O)[C@H](NC(=O)OC(C)(C)C)[C@H]1COC(C)(C)O1 assigned_label=no
compound=Cn1c2ccc(F)cc2c2ccc3c(c21)C(=O)C=CC3=O assigned_label=no
compound=COc1c(OC)c(OC)c2c(c1OC)c(=O)c1ccccc1n2C assigned_label=no
compound="CC1(S)CC2C(CC1Sc1ccccc1)C2(C)C (stereo unspecified)" assigned_label=no
compound="O=C(O)C[C@H]1CCCCC12CCOC2=O (stereo partly specified)" assigned_label=no
compound=CCCCCCCC(=O)O[C@H]1[C@H]2[C@@H](CC1(C)C)C(=O)[C@]13O[C@H]1C(=O)[C@]1(CO1)[C@]23C assigned_label=no
compound="O=C1CC2(CCC(O)(c3ccc(Cl)cc3)C(C(=O)c3ccc(Cl)cc3)C2)C(=O)c2ccccc2N1 (stereo unspecified)" assigned_label=no
compound=NNC(=O)/C(=C/c1cccc([N+](=O)[O-])c1)NC(=O)c1ccccc1 assigned_label=no
compound="COC(=O)CC1NC(=O)C1C1(C)OCCO1 (stereo unspecified)" assigned_label=no
compound=O=C(O)/C=N\N=c1[nH]c2ccccc2[nH]1 assigned_label=no
compound=CCCn1c(SCC)c2ccccc2c1-c1nc(F)nc(F)n1 assigned_label=no
compound=CCOC(=O)Nc1c(C#N)[n+]([O-])c2cc(Cl)c(Cl)cc2[n+]1[O-] assigned_label=no
compound=CN(C)c1ncnc2c1Cc1ccccc1C(=O)N2C assigned_label=no
compound="O=C(NCc1cccs1)OC1CC2CCC1C2 (stereo unspecified)" assigned_label=no
compound="Clc1ccc(C2N3CCCCC3[C@@H]3c4[nH]c5ccccc5c4CCN23)cc1 (stereo partly specified)" assigned_label=no
compound=CCO[C@@H]1OC(=O)[C@](C)(C(C)=O)[C@@H]1C assigned_label=no
compound="CC12CCC(=O)[C@@]1(C)CCCC2=O (stereo partly specified)" assigned_label=no
compound=CC(=O)Nc1ccc(-c2nc3ccccc3s2)cc1Br assigned_label=no
compound="CCOC(=O)C1=C(C)NC(=S)NC1c1cccc(O)c1 (stereo unspecified)" assigned_label=no
